- System: PXR:RXRa (NR concentration 270 nM, RXRa partner concentration 90 nM)
- test-details: PBM binding z-score (relative to random genomic background probes); higher = stronger binding; sequences stand for … in GC…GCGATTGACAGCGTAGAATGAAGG
Measured PBM binding z-score determines class: low: < 0.3; moderate: ≥ 0.3 and < 4; high: ≥ 4

- sequence-code: "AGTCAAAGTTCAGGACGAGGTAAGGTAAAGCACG"
  assayed-system: "PXR:RXRa (NR concentration 270 nM, RXRa partner concentration 90 nM)"
  class-label: "moderate"
- sequence-code: "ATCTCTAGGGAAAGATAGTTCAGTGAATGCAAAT"
  assayed-system: "PXR:RXRa (NR concentration 270 nM, RXRa partner concentration 90 nM)"
  class-label: "moderate"
- sequence-code: "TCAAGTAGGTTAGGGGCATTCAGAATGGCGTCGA"
  assayed-system: "PXR:RXRa (NR concentration 270 nM, RXRa partner concentration 90 nM)"
  class-label: "moderate"

--- query ---
Q: Which bin, given its PBM binding z-score, does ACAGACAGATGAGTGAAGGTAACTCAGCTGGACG occupy?
A: low

* * *

- System: RXRa DBDmut IVT, anti-RXR (DBD mutation: RXRa K156A/R161A, NR concentration 90 nM)
- test-details: PBM binding z-score (relative to random genomic background probes); higher = stronger binding; sequences stand for … in GC…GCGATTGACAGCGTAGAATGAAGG
Mark Criterion met for reported PBM binding z-score of 1 or greater; mark Criterion not met for anything smaller.

Look over these answered cases.
- sequence-code: "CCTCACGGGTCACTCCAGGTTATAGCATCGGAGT"
  class-label: "Criterion met"
- sequence-code: "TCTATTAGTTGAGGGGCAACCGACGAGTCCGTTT"
  class-label: "Criterion met"
- sequence-code: "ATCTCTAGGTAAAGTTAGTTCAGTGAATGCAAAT"
  class-label: "Criterion not met"
- sequence-code: "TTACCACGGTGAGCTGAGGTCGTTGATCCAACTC"
  class-label: "Criterion not met"
- sequence-code: "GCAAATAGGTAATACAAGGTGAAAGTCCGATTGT"
  class-label: "Criterion not met"
- sequence-code: "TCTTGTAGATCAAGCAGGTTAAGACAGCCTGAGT"
  class-label: "Criterion not met"

Q: Entry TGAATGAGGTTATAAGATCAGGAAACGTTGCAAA : is its PBM binding z-score no less than 1?
A: Criterion not met

Q: # bool: PBM binding z-score of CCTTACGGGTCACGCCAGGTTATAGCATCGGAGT >= 1
A: Criterion met

Q: Please tell me: is the sequence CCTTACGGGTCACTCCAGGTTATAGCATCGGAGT at or over 1 in terms of PBM binding z-score?
A: Criterion met

Q: API: above_or_equal(metric=PBM binding z-score, cutoff=1) for item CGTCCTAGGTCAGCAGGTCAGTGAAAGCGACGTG
A: Criterion not met

* * *

Listed here are sequences together with their documented PBM binding z-score.
- System: PXR homodimer (NR concentration 270 nM)
- test-details: PBM binding z-score (relative to random genomic background probes); higher = stronger binding; sequences stand for … in GC…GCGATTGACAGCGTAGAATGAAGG
I'd appreciate a reply containing only the number, no unit.

Answered examples (2):
- sequence-code: "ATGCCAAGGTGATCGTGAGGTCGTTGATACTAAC"
  assayed-system: "PXR homodimer (NR concentration 270 nM)"
  PBM binding z-score: 1.03
- sequence-code: "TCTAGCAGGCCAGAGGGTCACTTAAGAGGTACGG"
  assayed-system: "PXR homodimer (NR concentration 270 nM)"
  PBM binding z-score: -0.462

Briefly, PBM binding z-score measured for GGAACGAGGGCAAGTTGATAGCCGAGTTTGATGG : 0.247

Noted for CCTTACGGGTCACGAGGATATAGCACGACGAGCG : its PBM binding z-score reads -0.093

In plain terms, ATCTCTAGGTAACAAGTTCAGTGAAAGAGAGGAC has a documented PBM binding z-score of 2.41

So for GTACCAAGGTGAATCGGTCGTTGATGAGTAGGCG , the logged PBM binding z-score turned out to be -0.354

Short answer for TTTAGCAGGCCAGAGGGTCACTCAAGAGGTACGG : PBM binding z-score was -0.341

The reported PBM binding z-score of the sequence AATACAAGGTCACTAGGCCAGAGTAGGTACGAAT was 0.919

PBM binding z-score recorded for this sequence, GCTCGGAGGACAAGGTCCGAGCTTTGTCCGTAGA , is -1.19

Kindly note the recorded PBM binding z-score for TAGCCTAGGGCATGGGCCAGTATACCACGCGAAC , which is -0.557

PBM binding z-score recorded for this sequence, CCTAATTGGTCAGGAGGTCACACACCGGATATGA , is 1.4

Just so you know, measured PBM binding z-score for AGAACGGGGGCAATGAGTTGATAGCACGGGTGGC came out at 6.38

* * *

- Tested on: PXR homodimer (NR concentration 270 nM)
- test-details: PBM binding z-score (relative to random genomic background probes); higher = stronger binding; sequences stand for … in GC…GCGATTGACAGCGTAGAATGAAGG
Cut-off 2 on PBM binding z-score, inclusive. At or above means yes; below means no.

Field: example entries. Status: answers known.
- sequence-code: "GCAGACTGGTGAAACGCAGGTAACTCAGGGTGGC"
  class-label: "no"
- sequence-code: "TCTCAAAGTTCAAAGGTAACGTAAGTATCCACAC"
  class-label: "yes"
- sequence-code: "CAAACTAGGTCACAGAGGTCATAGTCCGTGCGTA"
  class-label: "yes"
- sequence-code: "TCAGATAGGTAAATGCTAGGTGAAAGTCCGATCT"
  class-label: "no"
- sequence-code: "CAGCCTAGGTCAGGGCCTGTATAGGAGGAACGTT"
  class-label: "no"
- sequence-code: "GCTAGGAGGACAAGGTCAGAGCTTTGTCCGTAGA"
  class-label: "no"
- sequence-code: "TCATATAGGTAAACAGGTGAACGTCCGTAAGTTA"
  class-label: "no"
- sequence-code: "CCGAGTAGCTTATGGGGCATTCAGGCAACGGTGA"
  class-label: "no"

Please examine the following record next.
Q: Determine whether this sequence has PBM binding z-score no lower than 2: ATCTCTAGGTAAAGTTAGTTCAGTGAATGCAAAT
A: no

* * *

- Test system: RARa:RXR (NR concentration 270 nM, RXRa partner concentration 90 nM)
- test-details: PBM binding z-score (relative to random genomic background probes); higher = stronger binding; sequences stand for … in GC…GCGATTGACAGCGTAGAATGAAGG
Measured PBM binding z-score accompanies every entry in the list below.
Note: the reply should be a number with no unit written.

These recorded examples may help you get a feel for the data.
- sequence-code: "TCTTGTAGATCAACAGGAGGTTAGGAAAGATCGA"
  assayed-system: "RARa:RXR (NR concentration 270 nM, RXRa partner concentration 90 nM)"
  quantitative-readout: 0.125
- sequence-code: "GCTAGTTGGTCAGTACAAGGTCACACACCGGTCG"
  assayed-system: "RARa:RXR (NR concentration 270 nM, RXRa partner concentration 90 nM)"
  quantitative-readout: 3.91
- sequence-code: "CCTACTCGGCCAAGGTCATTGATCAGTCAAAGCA"
  assayed-system: "RARa:RXR (NR concentration 270 nM, RXRa partner concentration 90 nM)"
  quantitative-readout: 3.59
- sequence-code: "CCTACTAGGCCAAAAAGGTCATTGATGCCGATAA"
  assayed-system: "RARa:RXR (NR concentration 270 nM, RXRa partner concentration 90 nM)"
  quantitative-readout: 5
- sequence-code: "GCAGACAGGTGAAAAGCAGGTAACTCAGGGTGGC"
  assayed-system: "RARa:RXR (NR concentration 270 nM, RXRa partner concentration 90 nM)"
  quantitative-readout: 0.143

Read the next record carefully.
Given item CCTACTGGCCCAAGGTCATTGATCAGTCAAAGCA , the value recorded as its PBM binding z-score is 3.36

* * *

- System: RARa homodimer (NR concentration 270 nM)
- test-details: PBM binding z-score (relative to random genomic background probes); higher = stronger binding; sequences stand for … in GC…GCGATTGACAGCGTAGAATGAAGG
A collection of sequences and their measured PBM binding z-score
Hey, just send me the number, nothing else.

- sequence-code: "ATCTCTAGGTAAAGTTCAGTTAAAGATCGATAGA"
  PBM binding z-score: 1.83
- sequence-code: "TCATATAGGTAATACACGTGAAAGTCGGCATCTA"
  PBM binding z-score: 1.56
- sequence-code: "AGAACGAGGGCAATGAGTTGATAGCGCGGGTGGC"
  PBM binding z-score: -1.01
- sequence-code: "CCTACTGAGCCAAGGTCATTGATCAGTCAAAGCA"
  PBM binding z-score: 1.47
- sequence-code: "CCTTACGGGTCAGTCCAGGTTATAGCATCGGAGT"
  PBM binding z-score: 0.405
- sequence-code: "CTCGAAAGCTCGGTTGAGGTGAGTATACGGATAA"
  PBM binding z-score: -0.648
- sequence-code: "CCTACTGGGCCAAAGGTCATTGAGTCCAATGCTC"
  PBM binding z-score: 1.14
- sequence-code: "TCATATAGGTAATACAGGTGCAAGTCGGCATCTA"
  PBM binding z-score: 1.43

Recorded result, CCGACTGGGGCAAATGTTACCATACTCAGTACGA , PBM binding z-score: -0.109

Looking up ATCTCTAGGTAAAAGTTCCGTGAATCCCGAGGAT , I see its PBM binding z-score listed as 0.505

Reference source for all entries: the supplement of paper PMC6555819
